tested.system: Histone-lysine N-methyltransferase EZH2 (Homo sapiens, UniProt Q15910)
Sequence (Q15910 whole entry): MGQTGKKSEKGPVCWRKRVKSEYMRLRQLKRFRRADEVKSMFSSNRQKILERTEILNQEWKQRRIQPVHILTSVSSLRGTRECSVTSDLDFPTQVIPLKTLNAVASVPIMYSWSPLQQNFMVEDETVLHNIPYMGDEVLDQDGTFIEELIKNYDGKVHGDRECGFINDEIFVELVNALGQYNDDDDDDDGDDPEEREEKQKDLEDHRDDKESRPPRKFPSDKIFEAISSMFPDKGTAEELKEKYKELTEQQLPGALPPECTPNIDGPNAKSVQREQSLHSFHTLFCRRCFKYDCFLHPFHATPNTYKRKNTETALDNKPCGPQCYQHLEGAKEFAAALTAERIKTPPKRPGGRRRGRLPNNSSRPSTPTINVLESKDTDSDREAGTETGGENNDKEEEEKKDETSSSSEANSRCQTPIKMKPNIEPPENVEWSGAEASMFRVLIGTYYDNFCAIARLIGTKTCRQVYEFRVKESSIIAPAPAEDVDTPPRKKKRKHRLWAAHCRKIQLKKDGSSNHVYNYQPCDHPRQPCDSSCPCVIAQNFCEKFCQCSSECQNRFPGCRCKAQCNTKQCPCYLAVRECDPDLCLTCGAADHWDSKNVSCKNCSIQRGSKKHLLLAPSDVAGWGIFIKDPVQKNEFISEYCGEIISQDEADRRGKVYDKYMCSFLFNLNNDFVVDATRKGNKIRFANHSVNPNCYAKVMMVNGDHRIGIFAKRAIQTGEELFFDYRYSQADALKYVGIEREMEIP
assay: Inhibition of EZH2 in human KARPAS422 cells assessed as reduction in H3K27me3 level after 72 hrs by ELISA
endpoint.label: IC50 (nM)

1) COC(c1cc(Cl)c2c(c1Cl)C(=O)N(Cc1c(C)cc(C)[nH]c1=O)CC2)C1CCN(C2COC2)CC1 (single isomer, unassigned; (+)) ... 16

[1] COc1cc(C)[nH]c(=O)c1CN1CCc2c(Cl)cc(C(OC)C3(C)COC3)c(Cl)c2C1=O (single isomer, unassigned; (+))
[2] CCC(CO)c1cc(Cl)c2c(c1Cl)C(=O)N(Cc1c(C)cc(C)[nH]c1=O)CC2 (stereo in doubt; (-)-5b)
[3] CCC(OC)c1cc(Cl)c2c(c1Cl)C(=O)N(Cc1c(C)cc(C)[nH]c1=O)CC2 (single isomer, unassigned; (-))
[4] Cc1cc(C)c(CN2CCc3c(Cl)cc([C@H](C)CO)c(Cl)c3C2=O)c(=O)[nH]1
[5] Cc1cc(C)c(CN2CCc3c(Cl)cc([C@H](CO)[C@H]4CCCO4)c(Cl)c3C2=O)c(=O)[nH]1
Arrange items by their IC50 values in increasing order. Reply with the item labels sorted in the order that was asked for. 1, 5, 3, 4, 2
(1: 8 nM, 5: 40 nM, 3: 65 nM, 4: 129 nM, 2: 682 nM)

[a] Cc1cc(C)c(CN2CCc3c(Cl)cc(C(CO)C4CCOCC4)c(Cl)c3C2=O)c(=O)[nH]1 (single isomer, unassigned; (-))
[b] COc1cc(C)[nH]c(=O)c1CN1CCc2c(Cl)cc(C(OC)C3CCOC3)c(Cl)c2C1=O (single isomer, unassigned; form 1)
[c] COC(c1cc(Cl)c2c(c1Cl)C(=O)N(Cc1c(C)cc(C)[nH]c1=O)CC2)C1CCOC1 (single isomer, unassigned; (-)10c)
Hey, quick one: sort these by IC50, largest value first please. Reply with the item labels sorted in the order that was asked for. c, b, a
(c: 494 nM, b: 110 nM, a: 11 nM)

###

System: Liver
assay: Intrinsic clearance in human liver microsomes assessed per mg protein at 1 uM preincubated for 10 mins followed by NADPH addition measured after 45 mins by LC-MS/MS analysis
Assay type: ADME, microsome
test.context: microsomes, 0.75 h, 1 µM
endpoint.label: microsomal CLint (µL/min/mg)

1) COC(C)c1cc(Cl)c2c(c1Cl)C(=O)N(Cc1c(C)cc(C)[nH]c1=O)CC2 (stereo in doubt; (-)9a) ... 158

[P] COc1cc(C)[nH]c(=O)c1CN1CCc2c(Cl)cc(C(OC)C3(C)COC3)c(Cl)c2C1=O (single isomer, unassigned; (+))
[Q] COC(c1cc(Cl)c2c(c1Cl)C(=O)N(Cc1c(C)cc(C)[nH]c1=O)CC2)C1CCN(C(=O)CO)CC1 (stereo in doubt; (+)-16a)
Select the item whose microsomal CLint value is smaller, choosing between P and Q . Give the label under which the chosen entry appears. Q
(Q: 42 µL/min/mg, P: 207 µL/min/mg)

###

tested.system: Histone-lysine N-methyltransferase EZH2 (Homo sapiens, UniProt Q15910, Y641N)
Sequence (Q15910 whole entry Y641N): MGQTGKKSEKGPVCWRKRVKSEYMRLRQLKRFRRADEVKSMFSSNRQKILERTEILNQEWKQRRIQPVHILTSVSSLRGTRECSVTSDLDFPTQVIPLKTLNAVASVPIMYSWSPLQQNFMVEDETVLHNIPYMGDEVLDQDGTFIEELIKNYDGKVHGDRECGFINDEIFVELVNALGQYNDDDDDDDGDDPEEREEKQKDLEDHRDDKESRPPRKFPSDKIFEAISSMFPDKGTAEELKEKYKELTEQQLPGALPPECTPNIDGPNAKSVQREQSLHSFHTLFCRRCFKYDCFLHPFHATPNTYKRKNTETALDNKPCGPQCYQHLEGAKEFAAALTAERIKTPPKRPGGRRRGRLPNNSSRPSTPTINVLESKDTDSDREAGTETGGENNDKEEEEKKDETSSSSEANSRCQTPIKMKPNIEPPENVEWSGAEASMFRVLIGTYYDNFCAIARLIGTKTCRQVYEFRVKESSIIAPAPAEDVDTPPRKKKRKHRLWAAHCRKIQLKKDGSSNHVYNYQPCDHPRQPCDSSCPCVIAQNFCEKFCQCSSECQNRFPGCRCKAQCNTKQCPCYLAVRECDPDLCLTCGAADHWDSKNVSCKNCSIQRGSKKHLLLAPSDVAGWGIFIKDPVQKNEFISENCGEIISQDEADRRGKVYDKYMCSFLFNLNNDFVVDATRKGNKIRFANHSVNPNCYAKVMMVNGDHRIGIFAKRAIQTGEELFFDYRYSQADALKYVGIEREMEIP
assay: Inhibition of EZH2 Y641N mutant (unknown origin) using oligonucleosomes as substrate after 60 mins in presence of [3H]SAM by scintillation counting analysis
pKi: −log10 of the molar value.
endpoint.label: pKi

Some molecules with recorded pKi:
1) CCC(OC)c1cc(Cl)c2c(c1Cl)C(=O)N(Cc1c(C)cc(C)[nH]c1=O)CC2 (single isomer, unassigned; (+)) ... 8.05
2) Cc1cc(C)c(CN2CCc3c(Cl)cc([C@@H](CO)[C@H]4CCCO4)c(Cl)c3C2=O)c(=O)[nH]1 ... 6.96
3) Cc1cc(C)c(CN2CCc3c(Cl)cc([C@H](CO)[C@H]4CCOC4)c(Cl)c3C2=O)c(=O)[nH]1 ... 9.62
4) Cc1cc(C)c(CN2CCc3c(Cl)cc([C@H](CO)[C@@H]4CCCO4)c(Cl)c3C2=O)c(=O)[nH]1 ... 8.00

[P] COc1cc(C)[nH]c(=O)c1CN1CCc2c(Cl)cc(C(OC)C3(C)COC3)c(Cl)c2C1=O (stereo in doubt; (-)-24b)
[Q] COC(c1cc(Cl)c2c(c1Cl)C(=O)N(Cc1c(C)cc(C)[nH]c1=O)CC2)C1CCOCC1 (single isomer, unassigned; (+))
Which record would sort first by descending pKi, P or Q ? Give the label under which the chosen entry appears. Q
(Q: 10.00, P: 6.46)

Just for reference, ChEMBL document CHEMBL4024771 is where these values come from.
